target: D-VEGF, synthetic D-protein form of VEGF-A(8-109) (Homo sapiens (Human)) (UniProt P15692); test: SPR (ProteOn XPR36), D-VEGF immobilized
Sequence (P15692 214-315 limits assumed, form in doubt): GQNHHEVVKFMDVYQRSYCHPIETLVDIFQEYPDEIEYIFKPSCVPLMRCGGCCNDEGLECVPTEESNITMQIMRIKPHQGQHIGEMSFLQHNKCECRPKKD
pKd: −log10 of the molar value.
measurement_kind: pKd

>  <binder>
E01 (recombinant, His-tagged) (designed binder) MKIEEHHHHHHHHHHGGSTYKLILNGKTLKGETTTEAVDVYDAFDVFFVYAASNFSDFDDWTYDDATKTFTVTEGGSDK

>  <measurement_kind>
pKd

>  <endpoint_value>
8.46

$$$$

P. E01-D39F/S35R (designed binder) MKIEEHHHHHHHHHHGGSTYKLILNGKTLKGETTTEAVDVYDAFDVFFVYAARNFSFFDDWTYDDATKTFTVTEGGSDK
Q. E01-D39F/D27E (designed binder) MKIEEHHHHHHHHHHGGSTYKLILNGKTLKGETTTEAVDVYDAFEVFFVYAASNFSFFDDWTYDDATKTFTVTEGGSDK
(Q) Among P and Q , whose measured pKd is the smaller figure? Please reply using the label of the selected record.
(A) P
(P: 8.27, Q: 8.51)
